// reported fold change of affinity for each item listed
Biological target: T1, Human CD3eg linker (human)
T1 construct: Single chain: epsilon and gamma subunits of human CD3 joined by a 29-mer linker, Flag-tag at the C-terminus; also called recombinant human CD3
T1 chain: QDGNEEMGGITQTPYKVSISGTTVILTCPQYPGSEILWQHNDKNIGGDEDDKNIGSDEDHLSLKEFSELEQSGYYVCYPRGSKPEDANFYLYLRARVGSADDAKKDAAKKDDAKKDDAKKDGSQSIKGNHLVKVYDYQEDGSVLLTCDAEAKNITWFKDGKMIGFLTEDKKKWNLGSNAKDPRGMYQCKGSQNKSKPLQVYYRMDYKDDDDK
Assay: Biacore SPR, vs template H183/L072
Report the figure along with its unit, number first.

H183/L072 VH N53I (antibody, name in Kabat numbering, V domains shown) VH: QVQLVESGGGLVQPGRSLRLSCAASGFTFSNAWMHWVRQAPGKGLEWVAQIKDKGIAYAAYYAPSVKGRFTISRDDSKNSIYLQMNSLKTEDTAVYYCHYVHYASASTVLPAFGVDAWGQGTTVTVSS VL: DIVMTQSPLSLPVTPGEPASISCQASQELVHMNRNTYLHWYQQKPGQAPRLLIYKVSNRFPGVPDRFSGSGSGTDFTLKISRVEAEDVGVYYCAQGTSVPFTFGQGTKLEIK : 0.4 fold

Q. Fill in the blank: the reported fold change of affinity of H183/L072 VH Q50P (antibody, name in Kabat numbering, V domains shown) VH: QVQLVESGGGLVQPGRSLRLSCAASGFTFSNAWMHWVRQAPGKGLEWVAPIKDKGNAYAAYYAPSVKGRFTISRDDSKNSIYLQMNSLKTEDTAVYYCHYVHYASASTVLPAFGVDAWGQGTTVTVSS VL: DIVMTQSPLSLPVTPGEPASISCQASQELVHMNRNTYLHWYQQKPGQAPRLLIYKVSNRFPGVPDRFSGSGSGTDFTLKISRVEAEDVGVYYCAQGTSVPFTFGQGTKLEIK is ____.
A. 0 fold

Q. Also H183/L072 VH A98P (antibody, name in Kabat numbering, V domains shown) VH: QVQLVESGGGLVQPGRSLRLSCAASGFTFSNAWMHWVRQAPGKGLEWVAQIKDKGNAYAAYYAPSVKGRFTISRDDSKNSIYLQMNSLKTEDTAVYYCHYVHYPSASTVLPAFGVDAWGQGTTVTVSS VL: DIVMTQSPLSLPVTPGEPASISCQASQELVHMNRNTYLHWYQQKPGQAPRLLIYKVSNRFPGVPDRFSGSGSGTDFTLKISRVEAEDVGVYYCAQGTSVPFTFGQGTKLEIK ?
A. 0.2 fold
